System: MDA-MB-231 cells
ASSAY_SUMMARY: Uptake in the presence of OCT and MATE inhibitors, MDA-MB-231 cells
Type: in vitro ADME, human
EXPERIMENTAL_CONDITIONS: compound and inhibitor 400 and 800 µmol/L, 10 min, 37 °C
PROPERTY_LABEL: uptake in the presence of cimetidine, MDA-MB-231

1) CN(C)C(=N)N=C(N)NS(=O)(=O)c1ccccc1Br significantly decreased
2) CN(C)C(=N)N=C(N)NS(=O)(=O)c1ccc(Br)cc1 significantly decreased

* * *

Test system: MCF-7 cells
ASSAY_SUMMARY: Uptake in the presence of OCT and MATE inhibitors, MCF-7 cells
Type: in vitro ADME, human
EXPERIMENTAL_CONDITIONS: summary from uptake with inhibitors
PROPERTY_LABEL: interactions with OCT, PMAT and MATE1 transporters, MCF-7

MOLECULE	RECORDED_RESULT
CN(C)C(=N)N=C(N)NS(=O)(=O)c1cccc(F)c1 [Compound 8]	OCT1
CN(C)C(=N)N=C(N)NS(=O)(=O)c1ccc(F)cc1 [Compound 9]	PMAT
